# Tested on: M. tuberculosis H37Rv growth inhibition with meropenem
# assayMethodText: dose response, H37Rv, with and without meropenem (AID 434987);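 also: growth over 7 days at 37 °C before Alamar Blue read on day 9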
# conditionContext: measured here: IC90 with meropenem
readoutLabel: IC90

# structureSmilesString, IC90
data = [
    ("O=C(N/N=C/c1cc([N+](=O)[O-])ccc1O)C1CC1", "> 100 µM"),
]

Input: Return reported IC90 for target or system M. tuberculosis H37Rv growth inhibition with meropenem, item `COc1ccccc1NS(=O)(=O)c1cccc(N2CC(O)=C(c3ccccc3)C2=N)c1` .
Output: 16 µM

Input: Output reported IC90 of the compound `CCOC(=O)c1cnn(-c2ncnc3sc4c(c23)CCC4)c1N` on M. tuberculosis H37Rv growth inhibition with meropenem.
Output: > 50 µM

Input: Please indicate recorded IC90 of `NC(=S)N/N=C/c1ccc(/C=N/NC(N)=S)cc1` measured with M. tuberculosis H37Rv growth inhibition with meropenem.
Output: > 100 µM

Input: Write down measured IC90 (M. tuberculosis H37Rv growth inhibition with meropenem) for this compound. `N#Cc1c(C(F)(F)F)cc(-c2ccccc2)nc1SCc1nc(N)nc(N2CCOCC2)n1`
Output: > 100 µM

---

# Test system: M. tuberculosis H37Rv growth inhibition with meropenem
# assayMethodText: dose response, H37Rv, with and without meropenem (AID 434987);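 also: growth over 7 days at 37 °C before Alamar Blue read on day 9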
# conditionContext: M. tuberculosis H37Rv growth inhibition; measured here: IC50 without meropenem
pIC50: −log10 of the molar value.
readoutLabel: pIC50

Use the examples below as a reference point.
# compound, result
records = [
    ("CCc1ccc(NC(=S)Nc2ccc(S(=O)(=O)Nc3ncccn3)cc2)cc1", "< 4.00"),
    ("O=C1C2CCN(CC2)C1Cc1ccc(OCCOc2ccccc2)cc1 (configuration not stated)", "< 4.00"),
    ("CSc1ccccc1C(=O)Nc1cccc([N+](=O)[O-])c1C", "< 4.00"),
    ("O=C(O/N=C\\c1ccc(N2CCCCC2)c([N+](=O)[O-])c1)c1c(F)cccc1F", "< 4.00"),
    ("COc1ccc(NC(=O)c2cc(Br)ccc2Cl)c(OC)c1", "< 4.00"),
]

Input: Give pIC50 for `COc1ccc(-c2csc(Nc3ncccc3C)n2)cc1OC`
Output: < 4.00

Input: Look up pIC50 of `O=C(COC(=O)C1CC1)c1c[nH]c2ccccc12` and report it.
Output: < 4.00

Input: # return recorded pIC50 for input `C(=N\n1cnnc1)/c1ccc(-c2ccccc2)cc1`
Output: < 4.00

Input: State its pIC50: `CCCc1nc2oc3c(OCC)ncnc3c2c2c1COC(C)(C)C2`
Output: < 4.00

Input: Recall and state the measured pIC50 for `O=C(NN=C1CCCC1)c1cccs1` .
Output: 4.30

Input: Report measured pIC50; entry is `CC(=O)Nc1ccc(SCC(=O)c2cc(C)n(C)c2C)cc1`
Output: 4.24

---

# System: M. tuberculosis H37Rv growth inhibition with meropenem
# assayMethodText: dose response, H37Rv, with and without meropenem (AID 434987);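 also: growth over 7 days at 37 °C before Alamar Blue read on day 9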
# conditionContext: M. tuberculosis H37Rv growth inhibition; measured here: IC50 without meropenem
pIC50: −log10 of the molar value.
readoutLabel: pIC50

Input: State its pIC50 for this molecule: `CCC(CC)NC(=O)CON=C1c2ccccc2-c2ccccc21`
Output: < 4.00

Input: Answer with reported pIC50 of `O=C(NC1CCCCCCC1)c1ccc(Br)cc1`
Output: < 4.00

Input: Provide one value: measured pIC50 of `O=C(C1=C[C@@H](c2ccc(Br)cc2)C[C@@H](OCc2ccc(CO)cc2)O1)N1CCN(Cc2ccc3c(c2)OCO3)CC1`
Output: < 4.00

Input: Identify pIC50 associated with the molecule `Cc1cc(C(=O)CN2C(=O)NC(c3ccccc3)(c3ccccc3)C2=O)c(C)n1Cc1ccccc1`
Output: < 4.00

---

# Test system: M. tuberculosis H37Rv growth inhibition with meropenem
# assayMethodText: dose response, H37Rv, with and without meropenem (AID 434987);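 also: growth over 7 days at 37 °C before Alamar Blue read on day 9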
# conditionContext: measured here: IC90 with meropenem
# key: entry, value: IC90

# example entries with known answers
# molecule, IC90
rows = [
    ("CCOC(=O)C1CCCN(c2ccc(NC(=O)c3snc4c(=O)[nH]cnc34)cc2)C1 (stereo not given)", "> 100 µM"),
    ("CCCC(=O)Nc1nc(-c2ccccc2)ns1", "> 100 µM"),
    ("Cc1c(C(=O)NCCC2=CCCCC2)sc2ncnc(N3CCCCC3C)c12 (stereo not given)", "52 µM"),
]

Input: Consider the molecule `CCOC(=O)c1sc(Nc2nc3c(OC)cccc3s2)cc1C` . State its measured IC90.
Output: > 100 µM

Input: In one line, give reported IC90 of the entry Cn1nc(-c2ccc(OCC(=O)NCC3CCCO3)cc2)c2ccccc2c1=O (stereo not given) .
Output: > 100 µM

Input: Return reported IC90. Input molecule: `O=C(CC(=O)c1ccccc1)Nc1ccc2c(c1)OCCO2`
Output: > 100 µM

---

# System: M. tuberculosis H37Rv growth inhibition with meropenem
# assayMethodText: dose response, H37Rv, with and without meropenem (AID 434987);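 also: growth over 7 days at 37 °C before Alamar Blue read on day 9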
# conditionContext: measured here: IC90 with meropenem
readoutLabel: IC90

Known results for compounds:
# compound, measurementTarget, IC90
measured = [
    ("COC(=O)c1cnn(-c2ccccc2)c1/C=N/NC(=S)Nc1ccc(Cl)cc1", "M. tuberculosis H37Rv growth inhibition with meropenem", "> 100 µM"),
    ("CCOC(=O)c1sc(NC(=O)CSc2n[nH]c(CC(C)C)n2)nc1C", "M. tuberculosis H37Rv growth inhibition with meropenem", "> 100 µM"),
    ("CCCSc1nnc(NC(=O)c2sc3nc(-c4cccs4)ccc3c2N)s1", "M. tuberculosis H37Rv growth inhibition with meropenem", "> 100 µM"),
    ("CCN(CC)c1ccc(CN2CCCCCC2)cc1", "M. tuberculosis H37Rv growth inhibition with meropenem", "49.4 µM"),
    ("CCOC(=O)C1CCN(C(=O)c2sc3nc(C)nc(N4CCC(C)CC4)c3c2C)CC1", "M. tuberculosis H37Rv growth inhibition with meropenem", "> 100 µM"),
    ("O=C(/C=C/c1cc(Br)ccc1F)OCC(=O)N1CCCC1", "M. tuberculosis H37Rv growth inhibition with meropenem", "> 100 µM"),
    ("O=C1NC(=O)N(Cc2ccco2)C(=O)/C1=C\\c1ccc(-c2ccc(F)cc2)o1", "M. tuberculosis H37Rv growth inhibition with meropenem", "> 100 µM"),
    ("O=C(Cc1cccc2ccccc12)N/N=C/c1ccc(O)c([N+](=O)[O-])c1", "M. tuberculosis H37Rv growth inhibition with meropenem", "31.6 µM"),
]

Input: Please give measured IC90 of the following entry: `CSc1ccc(-c2nnn(CC(=O)NCc3ccccc3)n2)cc1`
Output: > 100 µM

Input: Report IC90, nothing else, for this compound: O=C(NN1C(=O)c2cc(Br)ccc2NC1c1ccccc1Cl)c1ccncc1 (stereo unspecified)
Output: 13.7 µM

Input: Answer with the recorded IC90 of `COc1ccccc1N1CCN(CC(=O)Nc2cc(F)ccc2C)CC1` only.
Output: 91 µM

Input: Return IC90 (reported value) for this compound: `COc1ccc(-c2c(-c3ccsc3)oc3ccc(N4CCOCC4)cc23)cc1`
Output: > 100 µM

Input: Return value of IC90 for input CC(O)/C=C/c1ccc2ccccc2n1 (stereo unspecified) , no commentary.
Output: 57.5 µM

Input: // fetch IC90 given entry Cc1ccc(C)c(N2CCN(CC3CC=CCC3)CC2)c1 (stereo unspecified)
Output: 60.7 µM

Input: # return recorded IC90 for input CC1CCCN(C(=O)C2CCN(c3ncnc4c3nc3n4CCCCC3)CC2)C1 (stereo unspecified)
Output: 49.7 µM

Input: Query IC90 for `CCCCNC(=O)/C(=C/c1ccccc1)NC(C)=O`
Output: > 100 µM

Input: Input `Cc1c(NC(=O)c2noc3c2CCc2ccccc2-3)c(=O)n(-c2ccccc2)n1C` , output reported IC90.
Output: > 50 µM

Input: Name the recorded IC90 of the compound listed here: O=C(OCC(=O)N(Cc1ccccc1)C1CCS(=O)(=O)C1)c1cc2c(s1)CCCC2 (stereo unspecified)
Output: > 100 µM

---

Entries and their measured IC50 follow.
# Test system: M. tuberculosis H37Rv growth inhibition with meropenem
# assayMethodText: dose response, H37Rv, with and without meropenem (AID 434987);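 also: growth over 7 days at 37 °C before Alamar Blue read on day 9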
# conditionContext: M. tuberculosis H37Rv growth inhibition; measured here: IC50 without meropenem

Past entries and their recorded results:
# molecule, IC50
records = [
    ("CN(c1ccc(C(=O)Nc2ccccc2Sc2ccccc2)cc1)S(C)(=O)=O", "> 100 µM"),
    ("N=C1C(c2nc(-c3ccc(Cl)cc3)cs2)=C(O)CN1CCCN1CCOCC1", "> 100 µM"),
]

Input: Name the recorded IC50 of the molecule listed here: CN=C(Nc1cc(Cl)ccc1Cl)SC1CC(=O)N(c2ccc(C(=O)OC)cc2)C1=O (stereo not drawn)
Output: > 100 µM
